system: K562; assay: Antiproliferative activity against human K562 cells after 48 hrs by Alamar blue dye based neubauer hemocytometer method; format: functional, cell-based; settings: K562, 48 h
pIC50: −log10 of the molar value.
READOUT: pIC50

What value of pIC50 has been reported for the following compound? COc1ccc(N2CCN(C(=O)Nc3ccccc3Oc3ccccc3)CC2)cc1
< 5.00

// lookup pIC50 for COc1ccccc1N1CCN(C(=O)Nc2ccccc2Oc2ccccc2)CC1
< 5.00

GET /values?readout=pIC50&item= COc1cccc(N2CCN(C(=O)Nc3ccccc3Oc3ccccc3)CC2)c1
< 5.00

Quick check: pIC50 of COc1ccc(NC(=O)N2c3ccccc3Oc3ccccc32)cc1 ?
< 4.10
